- MEASURED_TARGET: Human STING (Homo sapiens, UniProt Q86WV6, G230A/H232R/R293Q/R71H)
- Construct: using human THP1-Blue™ ISG SEAP based reporter cell line (Invivogen)
- Sequence (Q86WV6 whole entry R71H/G230A/H232R/R293Q): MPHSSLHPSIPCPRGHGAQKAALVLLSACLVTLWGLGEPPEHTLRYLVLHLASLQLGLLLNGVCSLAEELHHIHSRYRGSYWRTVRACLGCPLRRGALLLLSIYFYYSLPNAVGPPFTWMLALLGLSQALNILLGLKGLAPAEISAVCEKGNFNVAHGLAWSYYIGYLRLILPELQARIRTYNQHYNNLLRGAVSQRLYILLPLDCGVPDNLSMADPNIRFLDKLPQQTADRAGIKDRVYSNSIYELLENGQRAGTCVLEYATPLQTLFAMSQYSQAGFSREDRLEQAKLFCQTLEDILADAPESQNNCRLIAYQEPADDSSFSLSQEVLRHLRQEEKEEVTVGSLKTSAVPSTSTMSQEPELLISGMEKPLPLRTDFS
- METHOD_NOTES: Stimulation of human STING signaling in THP1 cell line (THP1-Blue ISG SEAP reporter)
- REPORTED_CONDITIONS: THP1-Blue ISG cells, SEAP activity, 18-20 hours
pEC50: −log10 of the molar value.
MEASURE_NAME: pEC50

INPUT: Check Human STING (Homo sapiens, UniProt Q86WV6, G230A/H232R/R293Q/R71H) data and give pEC50 for CCn1nc(C)cc1C(=O)Nc1nc2cc(C(N)=O)cc3c2n1C/C=C/Cn1c(NC(=O)c2cc(C)nn2CC)nc2cc(C(=O)N[C@H]4CC[C@@H](c5nnn[nH]5)CC4)cc(c21)OCCCO3 .
OUTPUT: 7.00 to 7.96

INPUT: Check Human STING (Homo sapiens, UniProt Q86WV6, G230A/H232R/R293Q/R71H) data and give pEC50 for CCn1nc(C)cc1C(=O)Nc1nc2cc(C(N)=O)cc3c2n1C/C=C/Cn1c(NC(=O)c2cc(C)nn2CC)nc2cc(C(=O)N[C@H]4CC[C@H](c5nnn[nH]5)CC4)cc(c21)OCC(N1CC2CCC(C1)O2)CO3 (stereo partly drawn) .
OUTPUT: 7.00 to 7.96

INPUT: Check Human STING (Homo sapiens, UniProt Q86WV6, G230A/H232R/R293Q/R71H) data and give pEC50 for CCn1nc(C)cc1C(=O)Nc1nc2cc(C(N)=O)cc3c2n1C/C=C/Cn1c(NC(=O)c2cc(C)nn2CC)nc2cc(C(=O)NCc4ncccc4C(=O)O)cc(c21)OCCCO3 .
OUTPUT: 7.00 to 7.96
